- Test system: Mus musculus
- testName: Modulation of cardiovascular activity in mouse assessed as potentiation of norepinephrine induced pressure response at 2.5 mg/kg
- Assay type: functional, organism-based
Calls of active or inactive are those of the source. The rule behind the calls is not given here.
Pick from active, inactive when you respond.

CC1=N/C(=C\c2ccc(N(C)C)cc2)C(=O)O1 ... active

Record lookup: outcome of this test for `CC1=N/C(=C\c2ccccc2)C(=O)O1` ? active

Next record, please: CC1=N/C(=C\c2ccoc2)C(=O)N1c1ccc(OCC(O)CNc2ccc(Cl)cc2)cc1 (stereo not drawn) inactive

----------
- Test system: Mus musculus
- testName: Antidepressant activity in mouse assessed as total mean swimming time time at 5 mg/kg, ip (reference value: 2.08 to 3.12 min)
- Assay type: functional
Entries annotated with measured Time
Quick note: give the figure in min, leave out the unit.

The cases that follow already have their Time on record.
CC1=N/C(=C\c2ccoc2)C(=O)O1 ... 2.64
CC1=N/C(=C\c2ccc(N(C)C)cc2)C(=O)N1c1ccc(O)cc1 ... 0.42
CC1=N/C(=C\c2ccoc2)C(=O)N1c1ccc(O)cc1 ... 2.52
CC1=N/C(=C\c2ccccc2)C(=O)N1c1ccc(OCC(O)CNc2ccc(Cl)cc2)cc1 (stereo not given) ... 1.6
CC1=N/C(=C\c2ccc(N(C)C)cc2)C(=O)N1c1ccc(OCC2CO2)cc1 (stereo not given) ... 1.31

Data request, read-out Time, for `CC1=N/C(=C\c2ccccc2)C(=O)O1` 1.72

Record: CC1=N/C(=C\c2ccoc2)C(=O)N1c1ccc(OCC2CO2)cc1 (stereo not given) 1.14
